These measurements were taken from a melting point compilation (Tetko et al.; mined from patent text by program, amines drawn as free bases though some values may be those of a salt).

# melting point per entry

compound	melting point
CCCC[C@H]1CC[C@H](c2ccc(-c3ccc(CCc4ccc(F)cc4)cc3)c(F)c2)CC1	68 °C
COc1ccc(Cn2c(C)cc3cnnc(OCc4ccccc4)c32)cc1	152 to 156 °C
O=C(c1ccccc1Cl)c1cc2c(cc1NC=C[N+](=O)[O-])CCC2	225 to 226 °C
O=CNC1=NN(c2ccccc2)C(c2ccc(Cl)cc2)C1 (stereo not given)	135 to 136 °C
CCCCCCC(=O)Nc1cccc2c1C(=O)N(C1CCC(=O)NC1=O)C2=O (stereo not given)	200 to 202 °C

---

compound	melting point
Cc1ccc2c(c1)cc(C(=O)OCc1ccccc1)n2CC(=O)OC(C)(C)C	80 to 82 °C
O=Cc1ccc(-c2ccc3ncnc(Nc4ccc(OCc5cccc(F)c5)c(Cl)c4)c3c2)o1	230 to 234 °C
OCc1c(Cl)cc(Cl)cc1Cl	100 to 101 °C
COC(=Cc1ccc(-c2cccc(N(C)C(=O)Nc3ccccc3)c2)cc1)C(=O)O	223 °C
Cc1c(Cl)cccc1Nc1ncccc1C(=O)OCOC(=O)C(C)(C)C	90 to 91 °C
OCN1CCN=C1CC(c1ccccc1)c1ccccc1	161 to 163 °C
COCC(=O)Nc1cc(NC(=O)COC)cc(C(=O)OC)c1	140 to 141 °C
CCOC(=O)c1ccc(C(=O)Nc2ccc3c(c2)CCC(C)(C)C(=O)N3C)cc1	183 to 184 °C
Cc1oc(-c2ccco2)nc1COc1ccc(CO)cc1	91 to 92 °C
CC1CC2C3CCC4=CC(=O)C=CC4(C)C3=CCC2(C)C1C(=O)CN1CCN(c2cc(NC(C)(C)C)nc(NC(C)(C)C)n2)CC1 (stereo not given)	145 to 155 °C

---

melting point for assorted molecules
readout-name: melting point

molecule	reading
O=C(Nc1ccc2nc(CN3CCCCC3)ccc2c1)c1ccc(-c2ccc(F)cc2)cc1	202 to 204 °C
CCSCc1ccc(C(=O)c2ccc(Cl)cc2)cc1	33 to 34 °C
Fc1ccc(/C=C/c2nc(COc3ccc(CCCCn4ccnn4)cc3)co2)c(F)c1	115 to 117 °C
COC1(c2ccc3c(c2)OCO3)CCC(=O)CC1	84 to 85 °C
COCNC(=O)NC1CCCc2sccc21 (configuration not stated)	160 to 162 °C
CCOC(=O)Cc1c(C)nc2c3cccc(Cl)c3ccn12	137 to 138 °C
O=C1c2ccccc2C(=O)N1CCCSc1ccccc1	83 to 85 °C
CCOC(=O)Cn1nc(-c2ccc(OC)cc2)cc(C(=O)NC)c1=O	141 to 142 °C
OC1CCCC2C3CCCCCCC3C12 (configuration not stated)	142 °C
CCOC(=O)COc1ccc2c(-c3ccc(Cl)cc3)noc2c1	97 °C
CC1CCc2c(cc(-c3ccccc3)n2-c2ccc(O)c(C(=O)O)c2)C1 (configuration not stated)	213 to 215 °C
O=c1cc[nH]c2c([N+](=O)[O-])cc(C(F)(F)F)cc12	153 to 156 °C
COc1ccc(C(O)CN2CCNC2=S)cc1 (configuration not stated)	110 °C
CN(CCCCN1C(=O)C=CC1=O)c1ccccc1	66 to 67 °C
O=C(Nc1cccc2c1ncc1ccc(O)cc12)c1c(Cl)cccc1Cl	> 250 °C
CC(C)(C)C(=O)C(Cl)C(=O)Nc1cc(OC(=O)c2cc(C(C)(C)C)c(O)c(C(C)(C)C)c2)ccc1Cl (configuration not stated)	185 to 187 °C
Cc1cc([N+](=O)[O-])cc(C)c1Oc1ccc(OCc2ccccc2)c(C(C)C)c1	99 to 100 °C
Cc1cc(Oc2ccc3nc(COc4ccc(CC5SC(=O)NC5=O)cc4)n(C)c3c2)cc(C)c1NC(=O)Nc1ccc(C(F)(F)F)cc1 (configuration not stated)	206 to 208 °C
O=C1c2cscc2C(=O)c2cscc21	340 °C
CCOC(=O)c1ccccc1-n1nc(C(=O)OCC)c2csc(N)c2c1=O	176 to 178 °C
O=[N+]([O-])c1ccc(CCc2nccs2)cc1	92 to 93 °C
CCCCCCC(CCC)OC1(C(C)=O)C=CC=CC1 (configuration not stated)	38 to 39 °C
COc1ccc(-c2c(O)c3ccc(Cl)cc3[nH]c2=O)cc1OC	312 to 314 °C
CNc1cc(Cl)cc(C)n1	69 to 70 °C
CSC(C(=O)O)c1ccco1 (configuration not stated)	62 to 62.5 °C
O=c1[nH]c(=S)n2c3c1cnn3C(c1cccc(F)c1)=CC2	298 to 300 °C
COc1ccc2ccc(-c3ccccc3)cc2c1	65.4 to 66.3 °C
CCCNC(=O)C(C)=Cc1ccc2c(c1)c(Cc1ccc(C(=O)NS(=O)(=O)c3ccccc3C)cc1OC)cn2C	189 to 191 °C
CC1(C)CN(CCN2CCN(c3cccc(Cl)c3)C2=O)C1	84 to 85 °C
CC(C)(C)NC(=O)CN1C(=O)[C@@H](CNC(=O)Nc2cccc(Cl)c2)C[C@H](c2ccccc2)c2ccccc21	156 to 170 °C
Cn1c(-c2ccccc2)cc(=O)c2cc(C(=O)O)ccc21	> 30 °C
O=C(O)CCCC(=O)Nc1cccc(-c2ccnc3c(C(=O)c4cccs4)cnn23)c1	189 to 190 °C
CC(C)(Oc1ccc(C#N)cc1)C(O)=Cc1ccncn1	115 to 117 °C
CN(C(=O)c1ccc(Cn2cnc3ccccc32)cc1)[C@@H]1CCNC1	150 to 152 °C
CCOc1nc2cccc(C(=O)O)c2n1Cc1ccc(-c2ccccc2-c2nc(=O)o[nH]2)cc1	156 to 157 °C
COc1cc(COc2nn(-c3ccccc3)cc2C#N)ccc1OCc1nc(-c2ccccc2)oc1C	174 to 175 °C
C=CC1CCCC(=O)N1Cc1ccccc1Cl (configuration not stated)	37 to 39 °C
CC(C)Oc1cc(-n2nc(C(C)(C)C)oc2=O)ccc1F	72.5 to 74 °C
CC(C)OC(=O)C(=O)Nc1cc(Cl)ccc1O	> 300 °C
CC(C)(C)OC(=O)N1CCn2c(Br)c(-c3cccc(F)c3)c(C(N)=O)c2C1	168 to 174 °C
CCOC(=O)N1CCc2nc3ccccc3c(N3CCCC3)c2CC1	111 °C
O=C(O)C1CSCCC12OCCO2 (configuration not stated)	99 to 101 °C
